Values were extracted from PubChem BioAssay AID1259336.

# ASSAY_DETAILS: anthelmintic activity against nematode growth – whole organism, log2 fold change (AID 1259336);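 also: growth scored by imaging after five days at 20 °C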
# CONDITION_LABEL: C. elegans growth, anthelmintic screen; stronger effect = lower value
Readings of log2 fold change growth for the listed compounds

# COMPOUND, log2 fold change growth
rows = [
    ("O=C(NCc1ccco1)N1CCN(Cc2ccc(Cl)s2)CC1", 0.334),
    ("CC(=O)NC[C@@H]1CN(c2ccc(N3CCOCC3)c(F)c2)C(=O)O1", -0.257),
    ("Cc1ccc(NC(=O)c2nc[nH]c2C(=O)Nc2nc3ccccc3[nH]2)c(C)c1", -0.815),
    ("COc1cc(N[C@@H](C)CCCN)c2ncccc2c1", -0.0147),
    ("Cc1ccc(-c2nc(CN(Cc3ccccn3)C(C)C)cs2)o1", 0.617),
    ("Cc1cc(C)n2nc(C(=O)Nc3cc(C(F)(F)F)ccc3N3CCOCC3)nc2n1", 0.174),
    ("Cc1ccc(-c2cc(C(=O)Nc3cccnc3)c3cc(Br)ccc3n2)cc1", -0.0922),
    ("COc1cc(Br)cc2cc(C(=O)Nc3cccc(C(F)(F)F)c3)c(=O)oc12", 0.421),
    ("Cc1cc(OCC(=O)NCc2ccccc2)c2cc(Br)ccc2n1", 0.232),
    ("COc1cccc(-c2cc3c(Nc4cccnc4)nccc3[nH]2)c1", 0.319),
    ("CC(C)n1nc(-c2cc3c(Cl)cccc3[nH]2)c2c(N)ncnc21", -2.56),
    ("C[C@H]1CS(=O)(=O)CCN1/N=C/c1ccc([N+](=O)[O-])o1", 0.236),
    ("O=C(c1ccc(NCCO)cc1)C1C[C@H]1c1ccc(Cl)cc1 (some centres undefined)", -0.319),
    ("Cc1ccc(NC(=O)c2cc(S(=O)(=O)NC(C)(C)C)ccc2C)nc1", 0.26),
    ("NC(=O)c1cc(-c2ccsc2)ccc1OCCOc1ccccc1", 0.0714),
    ("Cc1ccc2c(c1C)NC(=O)[C@]21NN=C(c2ccccc2)S1", -0.355),
    ("C[C@H](Oc1cccc(Cl)c1)C(=O)Nc1ccc2oc(-c3ccncc3)nc2c1", 0.206),
    ("CN1CCCN([C@@H](c2ccccc2)c2ccc(Cl)cc2)CC1", 0.517),
    ("O=C(NCCN1CCCC1)c1cc(NCCCCN2CCC(F)(F)CC2)nc2ccc(Cl)cc12", 0.489),
    ("Brc1cncc(-c2cc(NCCCn3ccnc3)nc(-c3ccccc3)n2)c1", -1.17),
    ("Nc1ncnc2c1c(-c1cnc3ccccc3c1)nn2CC1CCNCC1", 0.195),
    ("CS(=O)(=O)c1cccc(-c2cnc3[nH]cc(-c4ccc(CCC(=O)O)cc4)c3c2)c1", 0.172),
    ("CNc1cc(C)nc([C@@H]2CN(C(=O)c3n[nH]c4ccccc34)CCO2)c1", 0.0798),
    ("CC(C)[C@@H](C(=O)Nc1ccc(S(=O)(=O)N(C)C)cc1)c1ccc(Cl)cc1", -5.06),
    ("O=C(C1CCN(c2nnnn2-c2ccccc2)CC1)N1CCc2ccccc2C1", -0.288),
    ("COc1ccc(C2=NN(C3CCCCCC3)C(=O)[C@@H]3CC=CC[C@H]23)cc1OCCCCOc1ccc(-c2nn[nH]n2)cc1", -0.0946),
    ("Clc1ccc(-n2cc(COc3ccnc4ccccc34)nn2)cc1", -5.7),
    ("COc1ccc(C2=NCCN2)cc1-c1cn(-c2cccc(C3=NCCN3)c2)nn1", 0.077),
    ("CC(C)(CN)c1nc(-c2ccc(Cl)c(O)c2)c(-c2ccnc(N)n2)[nH]1", -0.414),
]

====

# ASSAY_DETAILS: anthelmintic activity against nematode growth – whole organism, log2 fold change (AID 1259336);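 also: growth scored by imaging after five days at 20 °C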
# CONDITION_LABEL: C. elegans growth, anthelmintic screen; stronger effect = lower value
Readings of log2 fold change growth for the listed molecules
REPORTED_PROPERTY: log2 fold change growth

# MOLECULE, OBSERVED_VALUE
records = [
    ("OCCc1ccc(Nc2nccc(-c3nnc4ccccn34)n2)cc1", -0.0214),
    ("Cc1cc(Cl)c(S(=O)(=O)N2CCCC2)cc1OCC(=O)NC1CCCCC1", -0.00734),
    ("CCc1nc2ccccc2n1C[C@H](O)COc1cc(C)ccc1Cl", 0.0644),
    ("c1ccc(Oc2ccc(-c3cc(N4CCOCC4)n[nH]3)cc2)cc1", 0.348),
    ("O=C(N[C@H]1CCN(c2ccnc3ccccc23)C1)c1cccc(C(F)(F)F)c1", 0.541),
    ("COc1cc(C2=NCCN2)ccc1-n1cc(-c2cccc(C3=NCCN3)c2)nn1", -0.901),
    ("CNc1nnc(Sc2cnn(-c3ccccc3)c(=O)c2Cl)s1", -0.948),
    ("c1ccc(Oc2ccc(-c3cncc(-c4ccc5[nH]ccc5c4)n3)cc2)cc1", -1.03),
    ("COc1ccc(Cl)cc1NC(=O)CN(C)C(=O)c1cnn(-c2ccccc2)n1", -0.154),
    ("C[C@H]1COC2(CCN(c3nc(=O)c4cc(C(F)(F)F)cc([N+](=O)[O-])c4s3)CC2)O1", -0.284),
    ("Cc1[nH]n2c(=O)c3c(nc2c1-c1ccc(F)cc1)CCCC3", -0.19),
    ("CC(=O)NC[C@H]1CN(c2ccc(-c3ccc(CNCc4cn[nH]n4)cc3)c(F)c2)C(=O)O1", 0.387),
    ("O=C(NCc1cc(Cl)cc(Cl)c1)c1c(C(F)(F)F)nc2ccccn12", -0.11),
    ("COc1ccc(C(=N)N)cc1-c1cn(-c2ccc(C(=N)N)cc2)nn1", -0.0296),
    ("O=C(Nc1nc(-c2ccccn2)cs1)C1CC1c1ccccc1F (configuration not stated)", -2.09),
    ("CC1=Nc2ccc(Cl)cc2[C@@](O)(c2ccc(C)cc2)N1CCN1CCCCC1", 0.034),
    ("COc1cc2ncnc(NC3CCN(Cc4ccccc4)CC3)c2cc1OC", -0.116),
    ("CCCCOC(=O)Nc1cc2[nH]c(C3CCCCC3)nc2cc1N1CCCC1", -0.373),
    ("CCCCN(CCCC)c1c(C#N)cc(S(=O)(=O)Nc2ccccc2)cc1C#N", -0.631),
    ("CC(C)N=c1cc2n(-c3ccc(Cl)cc3)c3ccccc3nc-2cc1Nc1ccc(Cl)cc1", 0.0581),
    ("CNCC[C@H](Oc1ccc(C(F)(F)F)cc1)c1ccccc1", 0.102),
    ("CCCCCCCCCCCCCCCCOP(=O)([O-])OCC[N+](C)(C)C", 0.528),
    ("CCCCc1ccc(C(=O)Nc2nccc3ccccc23)nc1", 0.243),
    ("CCN(CC)C(=O)N1CCN(C)CC1", 0.355),
    ("O=C(Nc1ccc(F)c(-c2nc3ncc(-c4ccccc4)cc3[nH]2)c1)N1CCCC1", -5.81),
    ("CS(=O)(=O)c1ccc(C(=O)N(C[C@H]2CCCO2)c2nc3ccccc3s2)cc1[N+](=O)[O-]", 0.211),
    ("Cc1nc(-c2cccc(NCc3ccccc3)c2)[nH]c1C", 0.123),
]
